Quick list: melting point per entry.

| COMPOUND | melting point |
| --- | --- |
| ClC1(CN2c3ccccc3Sc3ccccc32)CN2CCC1CC2 (stereo not given) | 156 to 160 °C |
| CCCCCCCCCCCCCCOc1ccc(CC(=O)OCC)cc1OC | 40 to 41 °C |
| CNC(=O)C(Cc1ccc(OC)cc1)NC(=O)C(CC(C)C)C(CC(=O)N1CCN(C)CC1)SC(C)=O (stereo not given) | 133 to 138 °C |
| Cc1cc(C(O)(C(F)(F)F)C(F)(F)F)cc(C)c1SCC(=O)O | 133 to 135 °C |
| C=CCOc1ccccc1-c1nc2nc(SC)ncc2c(=O)[nH]1 | 205 to 206 °C |
| N#Cc1cc(F)c(-n2nc3ccc(Cl)cn3c2=O)cc1O | > 260 °C |
| N#CC(C=N)CC(=O)c1ccccc1 (stereo not given) | 89 to 90 °C |
| CCC12CCC3C4CCC(=O)C=C4CCC3C1CCC2OC1CCCCO1 (stereo not given) | 148 to 152 °C |
| CCCNC(=O)Cc1c(-c2ccc(C)s2)nc2sc3ccccc3n12 | 204 to 206 °C |
| Cc1cc(C)cc(OC(=O)C(Cl)c2ccccc2)c1 (stereo not given) | 79 °C |

Source listed as a melting point compilation (Tetko et al.; mined from patent text by program, amines drawn as free bases though some values may be those of a salt).
